experiment: Selectivity index, ratio of CC50 for mouse RAW264.7 cells to MIC90 for antimycobacterial activity against Mycobacterium tuberculosis H37Rv; assay type: toxicity; conditions: read-out: Selectivity Index
selectivity ratio values, listed per item

[[record]]
compound = "C=CCONC(=O)CN1C(=O)S/C(=C\\CCCC)C1=O"
measured_parameter = "selectivity ratio"
result = "> 2.1"


q: Looking for the measured selectivity ratio of CCCC/C=C1\SC(=O)N(C(C)C(=O)NOCc2ccccc2)C1=O (configuration not stated) , can you help?
a: > 0.7

* * *

system: Mycobacterium tuberculosis; assay: Inhibition of Mycobacterium tuberculosis Zinc metalloprotease-1 at 40 uM using angiotensin 2 as substrate preincubated for 3 mins and measured after 20 mins by MALDI-TOF MS analysis relative to control
inhibition values for the compounds below.
Form entry: value (%) — number only.

[[record]]
compound = "O=C(CN1C(=O)S/C(=C\\c2ccc(F)cc2)C1=O)NOCc1ccccc1"
measured_parameter = "inhibition"
numeric_result = 78.3

[[record]]
compound = "CC(C(=O)NOCc1ccccc1)N1C(=O)S/C(=C\\c2ccc(F)cc2)C1=O (stereo unspecified)"
measured_parameter = "inhibition"
numeric_result = 95.8

[[record]]
compound = "CC(C(=O)NOCc1ccccc1)N1C(=O)CSC1=O (stereo unspecified)"
measured_parameter = "inhibition"
numeric_result = 78.1

[[record]]
compound = "CC(C)C[C@H](NP(=O)(O)O[C@@H]1O[C@@H](C)[C@H](O)[C@@H](O)[C@H]1O)C(=O)N[C@@H](Cc1c[nH]c2ccccc12)C(=O)O [PHOSPHORAMIDON]"
measured_parameter = "inhibition"
numeric_result = 78

[[record]]
compound = "C=CCONC(=O)CN1C(=O)S/C(=C\\CCCC)C1=O"
measured_parameter = "inhibition"
numeric_result = 89.9


Next up:
q: Look at this compound and give its reported inhibition. C=CCONC(=O)CN1C(=O)CSC1=O
a: 92.2
